Listing: growth inhibition of selected compounds
- Procedure text: NCI Yeast Anticancer Drug Screen. Data for the rad50EPP+ strain (AID 151);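 also: 0% = growth of vehicle-treated control cultures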
- Condition context: S. cerevisiae rad50 mutant strain, at 100.0 µM, stronger effect = higher value
This is part of a sample that, as a whole, favours compounds with a hit. Of some 79,000 tested, about 15% had one in any assay.
Write it as a number; the unit % goes unstated.

# annotated cases, reported growth inhibition shown
{"Compound": "CC(C)(C)[Si](C)(C)OCC1OC(n2cnc3c(N)ncnc32)C2OC(=S)OC12 (stereo not given)", "Uom": "%", "growth inhibition": 8}
{"Compound": "CC1=NN(C(=O)CC(=O)N(C(=O)c2ccccc2)c2ccc(Cl)cc2)C(=O)C1N=Nc1ccc([N+](=O)[O-])cc1 (stereo not given)", "Uom": "%", "growth inhibition": 32}
{"Compound": "O=Cc1ccccc1B(O)O", "Uom": "%", "growth inhibition": 99}
{"Compound": "CN(C)c1ccc(C(c2ccc(Cl)cc2)c2ccc(N(C)C)cc2)cc1", "Uom": "%", "growth inhibition": 14}

// switching to the query compound
The recorded growth inhibition for Cc1ccnc(NS(=O)(=O)c2ccc(Nc3c4ccccc4nc4ccccc34)cc2)n1 is 74

---

Recorded growth inhibition, one value per entry.
- Procedure text: NCI Yeast Anticancer Drug Screen. Data for the sgs1 mgt1 strain (AID 161);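 also: 0% = growth of cultures given vehicle only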
- Condition context: S. cerevisiae sgs1 mgt1 strain, at 5.0 µM (retest, dose inferred, filed as 0.5), stronger effect = higher value
- Description: Growth inhibition of yeast strains with defined genetic alterations is measured as a screen for potential anti-cancer activity. Selected strains with alterations in DNA damage repair or cell cycle control were exposed to compounds and growth inhibition was measured relative to vehicle treated controls. The strain used in this assay is sgs1 mgt1
About 79,000 compounds went through this panel and 15% of them were active in at least one assay; those are over-represented in the sample as a whole.
Report only the number, with the unit % understood.

# count of solved cases: 5
{"Compound": "Cc1cccc(N2CCN(C(=O)/C(=C/c3ccccc3)NC(=O)c3ccccc3)CC2)c1", "Reading": 0}
{"Compound": "CC1C=CN(N(C)C)C2=C1C(=O)c1cnccc1C2=O (configuration not stated)", "Reading": 48}
{"Compound": "CCCCOc1ccc(Nc2c3ccccc3nc3ccccc23)cc1", "Reading": 10}
{"Compound": "CC(C)OC(CCC#N)c1ccc(Cl)cc1 (configuration not stated)", "Reading": 2}
{"Compound": "S=C1NC2=C(CSC/C2=C\\c2ccc(Cl)cc2)C(c2ccc(Cl)cc2)N1 (configuration not stated)", "Reading": 6}

The compound listed as [O-]c1c2cc(-[n+]3c(-c4ccccc4)cc(-c4ccccc4)cc3-c3ccccc3)cc1COCCOCCOCCOCCOC2 shows growth inhibition equal to -11

Measured growth inhibition of O=C(CSS(=O)(=O)O)c1ccccc1 : -9

---

- Procedure text: NCI Yeast Anticancer Drug Screen. Data for the rad14 strain (AID 159);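 also: 0% = growth of vehicle-treated control cultures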
- Condition context: S. cerevisiae rad14 strain growth inhibition; at 1.2 µM; stronger effect = higher value
The panel holds about 79,000 compounds, 15% with a hit somewhere; the sample as a whole holds those more often.
Parameter: growth inhibition. Scope: all listed entries.
Form entry: value (%) — number only.

The molecule listed as [O-]c1c2cc(-[n+]3c(-c4ccccc4)cc(-c4ccccc4)cc3-c3ccccc3)cc1COCCOCCOCCOCCOC2 shows growth inhibition equal to 1

---

- Procedure text: NCI Yeast Anticancer Drug Screen. Data for the mlh1 strain (AID 171);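 also: 0% = growth of vehicle-treated control cultures of the same strain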
- Condition context: S. cerevisiae mlh1 strain growth inhibition; at 33.0 µM; stronger effect = higher value
The panel holds about 79,000 compounds, 15% with a hit somewhere; the sample as a whole holds those more often. Calls of active or inactive are those of the source. Cut-off read from the data, not from the text of the source: active = growth inhibition above about 70%; inactive = the rest.
growth inhibition reference

Field growth inhibition (entry Cc1cnccc1N=Nc1ccc(N(C)C)cc1 ) reads 24% (inactive)

// field: growth inhibition; key: COc1cc(NCCCCCNC(C)C)c2ncccc2c1Cl ; value = 7% (inactive)

Form field growth inhibition, entry C#CC1=CC(=O)C(OC)=CC1=O : 99% (active)

The recorded growth inhibition for CCOC(=O)/C=C1\CCCn2c1ncc(C(=O)OCC)c2=O is 15% (inactive)

Entry under test: CN(C)CCn1c2ccccc2c2nc3cc4ccccc4cc3nc21 . Its growth inhibition was 80% (active)

// Cc1cccc(N2CCN(C(=O)/C(=C/c3ccccc3)NC(=O)c3ccccc3)CC2)c1 : growth inhibition value = 41% (inactive)

Reported growth inhibition ( O=C1C(Br)=CC(Br)(Br)C=C1Br ) = 96% (active)

---

- Procedure text: NCI Yeast Anticancer Drug Screen. Data for the wt2 strain (AID 169);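 also: 0% = growth of vehicle-treated yeast cultures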
- Condition context: S. cerevisiae wt2 strain growth inhibition; at 1.2 µM; stronger effect = higher value
About 79,000 compounds went through this panel and 15% of them were active in at least one assay; those are over-represented in the sample as a whole.
Consider the following compounds and their measured growth inhibition readings.
Please respond with the number in % and leave the unit unwritten.

Examples with their reported growth inhibition follow.
{"Compound": "CNc1ccc2[nH]c3ccccc3c2c1", "Uom": "%", "Reading": -1}
{"Compound": "[O-]c1c2cc(-[n+]3c(-c4ccccc4)cc(-c4ccccc4)cc3-c3ccccc3)cc1COCCOCCOCCOCCOC2", "Uom": "%", "Reading": -2}
{"Compound": "CN(C)N=Nc1ccc(NC=O)cc1", "Uom": "%", "Reading": 18}
{"Compound": "COc1ccc(/C(=N/O)c2ccccc2C2=Nc3ccccc3C(NCc3ccccc3)O2)cc1C (stereo not given)", "Uom": "%", "Reading": -1}
{"Compound": "BrC/C=C/C[P+](c1ccccc1)(c1ccccc1)c1ccccc1", "Uom": "%", "Reading": 3}
{"Compound": "CC1=Cc2ccc(C)cc2C(=O)C1=O", "Uom": "%", "Reading": -7}

For this compound ( Cc1cc(NC(=S)SCc2ccc(Cl)cc2)ccc1Cl ), measured growth inhibition is -5

The compound listed as O=C(N/N=C/c1ccc2c(c1)CCC2)c1ccccc1[N+](=O)[O-] has a reported growth inhibition of 16

Per the records, this compound ( CCN(CC)CCSc1c2ccccc2nc2cc(NCC(=O)Nc3ccccc3-c3ccccc3NC(=O)CNc3ccc4c(SCCN(CC)CC)c5ccccc5nc4c3)ccc12 ) has growth inhibition equal to -5

For record Oc1ccc(Br)cc1C=Nc1cccc(C(F)(F)F)c1 the listed growth inhibition is -1

---

- Procedure text: NCI Yeast Anticancer Drug Screen. Data for the rad14 strain (AID 159);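 also: 0% = growth of vehicle-treated control cultures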
- Condition context: S. cerevisiae rad14 strain growth inhibition; at 100.0 µM
Compounds without any hit were thinned out: in the full panel of roughly 79,000, 15% have a hit. The source made the active and inactive calls. Rule as the data show it: active = growth inhibition above about 70%; inactive = the rest.
Could you please pick one outcome from this set? class 1 (active), class 0 (inactive)

{"Compound": "O=C1OC(/C=C/c2ccccc2)Sc2ccccc21 (stereo not given)", "Assigned class": "class 0"}

Task: Just curious, what result did Cc1ccc(Nc2n[nH]c(=S)s2)cc1C get here?
Output: class 1

Task: # lookup: test call for CCCCCC/C(C)=N/Nc1ccc([N+](=O)[O-])cc1[N+](=O)[O-]
Output: class 0

Task: Per the records of this test, what outcome belongs to CC(C)(C(=O)NN)c1ccccc1 ?
Output: class 0

Task: Identify the outcome logged in this assay for the compound shown: Cc1ccc(Cl)c2c(=O)c3ccccc3[nH]c12
Output: class 0

---

- Procedure text: NCI Yeast Anticancer Drug Screen. Data for the rad50EPP+ strain (AID 151);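 also: 0% = growth of vehicle-treated control cultures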
- Condition context: S. cerevisiae rad50 mutant strain, at 3.7 µM, stronger effect = higher value
- Experimental: Growth inhibition of yeast strains with defined genetic alterations is measured as a screen for potential anti-cancer activity. Selected strains with alterations in DNA damage repair or cell cycle control were exposed to compounds and growth inhibition was measured relative to vehicle treated controls. The strain used in this assay is rad50EPP+
Compounds without any hit were thinned out: in the full panel of roughly 79,000, 15% have a hit.
Collected growth inhibition values appear next to each entry.
Supply the numeric figure in %, leaving out any unit text.

Previously resolved entries follow.
{"Compound": "Cc1ccc(Nc2n[nH]c(=S)s2)cc1C", "Uom": "%", "growth inhibition": -5}
{"Compound": "CN1CCN(c2ccc3nc(-c4ccc5nc(-c6ccc(O)cc6)[nH]c5c4)[nH]c3c2)CC1", "Uom": "%", "growth inhibition": -12}
{"Compound": "c1ccc(C2=NNC3c4ccccc4-c4ccccc4N3C2)cc1 (stereo unspecified)", "Uom": "%", "growth inhibition": 1}
{"Compound": "Oc1ccc(Br)cc1C=Nc1cccc(C(F)(F)F)c1", "Uom": "%", "growth inhibition": 4}
{"Compound": "O=C(Nn1c(-c2ccccc2)nc2ccccc2c1=O)c1ccc(Cl)cc1", "Uom": "%", "growth inhibition": -11}

What the record says about O=C(c1c(F)c(F)c(F)c(F)c1F)c1c(F)c(F)c(F)c(F)c1F : growth inhibition is 60

---

- Procedure text: NCI Yeast Anticancer Drug Screen. Data for the wt2 strain (AID 169);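 also: 0% = growth of vehicle-treated yeast cultures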
- Condition context: S. cerevisiae wt2 strain growth inhibition; at 100.0 µM
This is part of a sample that, as a whole, favours compounds with a hit. Of some 79,000 tested, about 15% had one in any assay. The source made the active and inactive calls. No stated cut-off is given here; in the data, active means growth inhibition above about 70%; inactive means the rest.
// one of T (active), F (inactive), no free text

Example entries and their recorded answers appear below.
{"Compound": "O=C1c2ccc(O)cc2C(=O)c2c(O)ccc(O)c21", "Assigned class": "T"}
{"Compound": "OC(c1ccc(Br)cc1)(c1cccs1)C1CC1 (configuration not stated)", "Assigned class": "T"}
{"Compound": "CCN(CC)c1cccc(Nc2nc3ccccc3s2)c1", "Assigned class": "F"}
{"Compound": "CC(=O)CC[N+](C)(C)C", "Assigned class": "F"}
{"Compound": "COc1ccc(/C(=N/O)c2ccccc2C2=Nc3ccccc3C(NCc3ccccc3)O2)cc1C (configuration not stated)", "Assigned class": "T"}

Task: Per the records of this test, what outcome belongs to Nc1ccc2ncc(Nc3ccc(Cl)c(Cl)c3)nc2c1 ?
Output: T

Task: Just curious, what result did NCC(O)CSCc1ccc(Cl)cc1 (configuration not stated) get here?
Output: F

Task: Please share the test call associated with CCCCCCCCCC/C=C\CC(=O)O .
Output: T
